TEST DESCRIPTION: Immunotoxin (SS1P) sensitization/mitigation study. Vehicle arm (DMEM) (AID 1159513); also: potency is read from the fitted curve at half-maximal effect
PROTOCOL CONDITIONS: cell viability with vehicle (DMEM); series mostly up to 46.1 µM
Activity calls are given as the source filed them. No rule for the calls is given here.
EXPERIMENTAL ENDPOINT: Potency

Q. Please list Potency recorded for the compound Cc1cc(Nc2cc(N3CCN(C)CC3)nc(C=Cc3ccccc3)n2)n[nH]1
A. 0.833 µM (active)

Q. Please list Potency recorded for the compound Nc1ccccc1NC(=O)c1ccc(CNC(=O)OCc2cccnc2)cc1
A. 5.9 µM (active)

Q. Please list Potency recorded for the compound Cc1ccc(C(N)=O)cc1Nc1nccc(-c2cn(C(C)C)c3cnccc23)n1
A. 7.43 µM (active)

Q. Please list Potency recorded for the compound CC(C)[C@]12O[C@H]1[C@@H]1O[C@]13[C@]1(O[C@H]1C[C@H]1C4=C(CC[C@@]13C)C(=O)OC4)[C@@H]2O
A. 0.0074 µM (active)

Q. Please list Potency recorded for the compound Cc1cn2c(-c3cn[nH]c3)cnc2c(Nc2ccc(C(=O)N3CCNCC3)cc2F)n1
A. 13.2 µM (active)

Q. Please list Potency recorded for the compound CN(C)c1ccc(C2Nc3ccc4ccccc4c3C3=C2C(=O)CC(C)(C)C3)cc1Br (centres undefined)
A. 18.7 µM (active)

Q. Please list Potency recorded for the compound c1ccc2c(CCNc3ccc(Nc4ccncc4)cc3)c[nH]c2c1
A. 20.9 µM (active)

Q. Please list Potency recorded for the compound CN(C)CC=CC(=O)Nc1cc2c(Nc3ccc(F)c(Cl)c3)ncnc2cc1O[C@H]1CCOC1
A. 6.62 µM (active)
